Listed below: apparent Kd values for each entry.
- System: MS2 coat protein
- assay-summary: apparent Kd, MS2 coat protein; higher = weaker binding; RNA-MaP array; FMN 200 µM where present
- test-conditions: ligand present: flavin mononucleotide; designed as: ON switch for flavin mononucleotide
Express it in nM; write the number only.

Solved cases (6 shown):
UACAUUACUUAGAAGGGAUAUAUAUAAUUUUAGUCAGGAUAUAGAUACAGUACAACAUGAGGACAUGAGGAUCACCCAUGUAUU :: 20.8
UUUGUAAUGUCAGGAUAUAUUAUAAGUCAGACUGUAGAAGGGAUAAUUAUACUCAUGUACAUGAGGAUCACCCAUGUUAAAUAU :: 53.2
GACUACGAGGGAGGAUAUCCUCAUUAAUUUGGUGGAGAAGGCCCUCUACAUGAGGAUCACCCAUGUAUCGCUAUAGUCAGACAU :: 6.95
GCAACGCUUGACAUGAGGAUCACCCAUGUUAGAUUGUUAUGUCAGGAUAUAGUCUAGAAACUAGACUAGAAGGGAUAUGUUGCU :: 44.2
CCAGAGAUAUGAGGAUAUCGAGUGGAUAACACUCGAGAAGGCAUGUGAAAACAUGAGGAUCACCCAUGUAUGAUCUACUCUGGA :: 23.8
GUCGGAAACGACAAAAGUAUGGAUCCAGAAGGCAUGAUACAUGAGGAUCACCCAUGUCUAAGACAUGAGGAUAUGGAUCCAUAC :: 4.77

Proceed to the following item.
INPUT: What value of apparent Kd has been reported for the following sequence? CUCAUCCUUACAGGCUGAGACAUGAGGAUCACCCAUGUAGGGAGAAGGGAGUUGGGCAUCUUGACUCAGGAUAUCCCGAAAGAC
OUTPUT: 83.7
